- tgt: human ERα (Homo sapiens (Human))
pIC50: −log10 of the molar value.
measured-property: pIC50

cpd_smiles=Oc1ccc([C@H]2COc3cc(O)ccc3C2)cc1 endpoint_result=5.23

====

- tgt: human ERβ (Homo sapiens (Human))
- test: Fluorescence polarization competitive binding assay, ERβ
- setup-conditions: Table 1; read-out: IC50 ERβ
pIC50: −log10 of the molar value.
measured-property: pIC50

molecule="O=C1Oc2cc(O)cc(Cc3ccccc3)c2CC1c1ccc(Cl)cc1 (stereo not shown)" tgt="human ERβ (Homo sapiens (Human))" endpoint_result=6.60

====

- tgt: human ERβ (Homo sapiens (Human), UniProt Q92731)
- test: Fluorescence polarization competitive binding assay, ERβ
- setup-conditions: Table 2, full-length human ERβ; read-out: ERβ IC50
measured-property: IC50 (nM)

cpd_smiles=Oc1ccc([C@H]2COc3cc(O)ccc3C2)cc1 measured_property=IC50 endpoint_result=582

Measured values drawn from patent US8552057B2 for this set.
